Where do the numbers come from? From PubChem BioAssay AID504568.

- Tested on: 2C TCR mouse CD8+ T cells, vesicle binding, flow cytometry
- ASSAY REMARKS: modulators of T cell-vesicle binding via LFA-1, confirmation, powder samples, single concentration, mouse 2C TCR, flow cytometry (AID 504568);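 note: lower values mean less vesicle binding and point to an inhibitor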
- ASSAY CONTEXT: measured here: CD8+ cell vesicle fluorescence mean, stronger effect = lower value
MEASUREMENT NAME: mean fluorescence percent response (%)
Numbers only, in %.

Recorded results for 4 molecules are shown here.
| MOLECULE | READOUT UNITS | mean fluorescence percent response |
| --- | --- | --- |
| COc1ccc(NC(=O)CSCC(=O)Nc2cccc(S(=O)(=O)N3CCCCCC3)c2)cc1 | % | 136 |
| Cc1cccc(NC(=O)C2CCN(S(=O)(=O)c3c(C)[nH]c(=O)[nH]c3=O)CC2)c1 | % | 161 |
| COc1ccc(C(O)c2coc3ccc(O)c(CN(C)C)c23)cc1 (stereo not given) | % | 162 |
| CCN(CC)CCNC(=O)CCCNC(=O)Cn1cnc2sc(C)c(C)c2c1=O | % | 196 |

Now turn to the next molecule.
Record lookup: for 2C TCR mouse CD8+ T cells, vesicle binding, flow cytometry, what mean fluorescence percent response belongs to "COc1cccc(NC(=O)Nc2ccc3nc(C)c(C)nc3c2)c1" ?
113

---

- Test system: 2C TCR mouse CD8+ T cells, vesicle binding, flow cytometry
- ASSAY REMARKS: modulators of T cell-vesicle binding via LFA-1, confirmation, powder samples, single concentration, mouse 2C TCR, flow cytometry (AID 504568);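 note: lower values mean less vesicle binding and point to an inhibitor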
- ASSAY CONTEXT: measured here: CD8+ cell vesicle fluorescence mean, stronger effect = lower value
Please respond with reported mean fluorescence percent response for every item in the list.

| COMPOUND | mean fluorescence percent response |
| --- | --- |
| CN(C)S(=O)(=O)c1ccc(C(=O)NCCc2ccco2)cc1 | 122% |
| CN1CCN(S(=O)(=O)c2cccc(C(=O)Nc3cc(C(F)(F)F)ccc3N3CCCCC3)c2)CC1 | 105% |
| CCOC(=O)c1ccc(NC(=O)CN2C(=O)NC3(CCCCCCC3)C2=O)cc1 | 149% |
| COc1ccc(S(=O)(=O)N2CCCCC2)cc1NC(=O)c1cnc(C)cn1 | 173% |

I'm hoping you can list mean fluorescence percent response for every compound here, please.
1. O=C(OCCOc1cccc(Cl)c1)c1ccc(F)c(S(=O)(=O)N2CCOCC2)c1
2. Cc1cc(Cl)c(OCCCSc2nc(C)cc(=O)[nH]2)c(Br)c1
3. COCc1c(C(=O)Nc2cccc(S(=O)(=O)N3CCCCC3)c2)oc2ccccc12
4. CCOc1ccc(-c2nc(N)ncc2-c2ccccc2)c(O)c1
5. O=C1CC(c2nc3ccccc3[nH]2)CN1Cc1ccccc1 (stereo unspecified)
6. COc1ccc(N2CC(C(=O)NC(C)C(=O)NCc3ccccc3OC)CC2=O)cc1 (stereo unspecified)

["163%", "126%", "104%", "126%", "124%", "177%"]

Need mean fluorescence percent response for each of these compounds.
1. CC(C)(C)NC(=O)COc1ccc(CNCc2cccnc2)cc1
2. COc1ccc(C2=Nc3cc(C)ccc3OC2)cc1
3. c1ccc(COc2ccc(OCCN3CCCCC3)cc2)cc1
4. CCOC(=O)c1ccc(S(=O)(=O)N2CCN(C3CCCC3)CC2)cc1
5. COc1ccc(NC(=O)CC2C(=O)N(Cc3ccccc3)C(=S)N2CCN2CCOCC2)cc1 (stereo unspecified)
6. Cc1sc2ncnc(NCC(C)(C)N3CCOCC3)c2c1C

1: 148%; 2: 140%; 3: 133%; 4: 155%; 5: 149%; 6: 126%

---

Hi there, I'd appreciate the recorded mean fluorescence percent response for every entry that follows.
- Test system: 2C TCR mouse CD8+ T cells, vesicle binding, flow cytometry
- ASSAY REMARKS: modulators of T cell-vesicle binding via LFA-1, confirmation, powder samples, single concentration, mouse 2C TCR, flow cytometry (AID 504568);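 note: lower values mean less vesicle binding and point to an inhibitor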
- ASSAY CONTEXT: measured here: CD8+ cell vesicle fluorescence mean, stronger effect = lower value
Numbers only, in %.

Before answering, review these 5 worked examples.
| MOLECULE | MEASURED TARGET | MEASUREMENT NAME | VALUE |
| --- | --- | --- | --- |
| CCOc1ccc(CCNC(=O)CCS(=O)(=O)c2ccc(C)cc2)cc1OCC | 2C TCR mouse CD8+ T cells, vesicle binding, flow cytometry | mean fluorescence percent response | 117 |
| O=C(NCCN1CCN(c2ccccc2)CC1)c1cccc(Br)c1 | 2C TCR mouse CD8+ T cells, vesicle binding, flow cytometry | mean fluorescence percent response | 152 |
| CC1CCCCC1NC(=O)COC(=O)c1ccc2ncsc2c1 (centres undefined) | 2C TCR mouse CD8+ T cells, vesicle binding, flow cytometry | mean fluorescence percent response | 111 |
| CCN(CC)C(=O)N1CCN(S(=O)(=O)c2ccc(C)cc2)CC1 | 2C TCR mouse CD8+ T cells, vesicle binding, flow cytometry | mean fluorescence percent response | 129 |
| Cc1ccc(NC(=O)COC(=O)CCc2c[nH]c3ccccc23)c(C)c1 | 2C TCR mouse CD8+ T cells, vesicle binding, flow cytometry | mean fluorescence percent response | 147 |

For every record below, what is its mean fluorescence percent response?
1. O=C(NCc1cccnc1)C(=O)NCC(c1ccco1)N1CCN(c2ccccc2)CC1 (centres undefined)
2. O=C(NNS(=O)(=O)c1ccc2ccccc2c1)c1cccs1
3. CCCc1nnc(NC(=O)c2ccc(S(=O)(=O)N(C)c3ccccc3OC)cc2)s1
4. Cc1ncc([N+](=O)[O-])n1Cc1cccc(F)c1
5. Cc1ccc(OCCOC(=O)c2cc(S(=O)(=O)N3CCCCC3)ccc2N2CCOCC2)cc1
6. CCCCn1nc(C(=O)N2CCN(S(=O)(=O)c3ccccc3)CC2)c2ccccc2c1=O
7. CN1CCN(S(=O)(=O)c2ccc(C(=O)Nc3ccccc3)cc2)CC1
8. CCN(CC)S(=O)(=O)c1ccc(Cl)c(NC(=O)COC(=O)C2CCCCC2)c1

[149, 149, 131, 152, 134, 145, 138, 126]

// each listed molecule needs a value for mean fluorescence percent response
1. CCC1(C)NC(=O)N(CC(=O)N2N=C(c3ccccc3)CC2c2ccc(OC)cc2)C1=O (centres undefined)
2. COc1ccc(/C=C2\SC(=S)N(CCC(=O)N3CCOCC3)C2=O)cc1
3. CC(=O)Nc1ccc(S(=O)(=O)NC2CCSc3ccccc32)cc1 (centres undefined)

144
102
120

Each molecule below has a reported value. Please supply its mean fluorescence percent response.
1. Cc1ccc(N2CC(C(=O)NC3=NCCS3)CC2=O)cc1 (centres undefined)
2. CCOC(=O)N1CCN(C(=O)c2ccc(CS(=O)Cc3ccc(C)cc3)o2)CC1 (centres undefined)
3. O=C(COC(=O)C12CC3CC(CC(Br)(C3)C1)C2)Nc1cccc(S(=O)(=O)N2CCOCC2)c1
4. CN(CC(=O)Nc1cc(S(=O)(=O)N2CCCC2)ccc1Cl)Cc1ccc2c(c1)OCO2
5. Cn1c(CNC(=O)CNC(=O)c2ccc(F)cc2)cc(=O)n(C)c1=O
6. Cc1cc(C)n(C(=O)c2sc3cc(F)ccc3c2Cl)n1

1. 161
2. 146
3. 91.1
4. 123
5. 165
6. 90.2

I need mean fluorescence percent response for every entry listed below, if you could help.
1. O=C(c1ccc(N2C(=O)C3CC=C(Cl)CC3C2=O)cc1)N1CCCCC1 (centres undefined)
2. O=C(CCC(=O)N1CCOCC1)NCc1cccc(C(F)(F)F)c1

[130, 133]

---

Exercise: for every item that follows, state its recorded mean fluorescence percent response.
- Test system: 2C TCR mouse CD8+ T cells, vesicle binding, flow cytometry
- ASSAY REMARKS: modulators of T cell-vesicle binding via LFA-1, confirmation, powder samples, single concentration, mouse 2C TCR, flow cytometry (AID 504568);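 note: lower values mean less vesicle binding and point to an inhibitor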
- ASSAY CONTEXT: measured here: CD8+ cell vesicle fluorescence mean, stronger effect = lower value
One number for each entry, in %.

| MOLECULE | VALUE |
| --- | --- |
| CCC(C(=O)Nc1ccccc1)c1ccccc1 (stereo not given) | 131 |
| Cc1cc(=O)oc2c3c(cc(OCC(=O)NCc4ccncc4)c12)OC(C)(C)CC3 | 128 |
| CCOCC(=O)Nc1ccc(S(=O)(=O)N2CCC(c3nc4ccccc4[nH]3)CC2)cc1 | 97.1 |
| COc1ccc([N+](=O)[O-])cc1NC(=O)c1ccc(N(Cc2ccccc2C)S(C)(=O)=O)cc1 | 105 |

Hi! Can you tell me mean fluorescence percent response for each of these molecules?
1. CCCCOc1ccc(C(=O)NCC(=O)N2CCN(C(=O)c3ccco3)CC2)cc1
2. Cc1ccc(C(=O)NCCCN2CCOCC2)c(C)c1
3. COc1ccc(S(=O)(=O)N2CCCC2C(=O)Nc2ccc(C(C)=O)cc2)cc1 (stereo not given)
4. COc1ccc(Nc2ccccc2N)cc1
5. Cc1ccc(Cn2c([N+](=O)[O-])cnc2C)cc1
6. COCCCN1CCc2[nH]c(=S)[nH]c(=O)c2C1

133
136
142
138
153
169
